details: in methyl acetate, 318.15 K
experimentalEndpoint: solubility (mole fraction)

1) NC(=O)c1nc(F)cnc1O :: 0.00564

====

settings: in acetone, 313.15 K
experimentalEndpoint: solubility (mole fraction)

1. NC(=O)c1nc(F)cnc1O :: 0.00585

====

conditions: in ethyl acetate, 293.15 K
experimentalEndpoint: solubility (mole fraction)

1) NC(=O)c1nc(F)cnc1O :: 0.0036

====

conditions: in DMF, 323.15 K
experimentalEndpoint: solubility (mole fraction)

1) NC(=O)c1nc(F)cnc1O :: 0.0212

====

conditions: in isopropanol, 293.15 K
experimentalEndpoint: solubility (mole fraction)

1) NC(=O)c1nc(F)cnc1O :: 0.00185

====

conditions: in acetone, 328.15 K
experimentalEndpoint: solubility (mole fraction)

1. NC(=O)c1nc(F)cnc1O :: 0.00772

====

details: in n-butanol, 313.15 K
experimentalEndpoint: solubility (mole fraction)

1) NC(=O)c1nc(F)cnc1O :: 0.00385

====

settings: in ethyl acetate, 333.15 K
experimentalEndpoint: solubility (mole fraction)

1. NC(=O)c1nc(F)cnc1O :: 0.00662

====

details: in n-butyl acetate, 323.15 K
experimentalEndpoint: solubility (mole fraction)

1) NC(=O)c1nc(F)cnc1O :: 0.00839

====

settings: in methanol, 328.15 K
experimentalEndpoint: solubility (mole fraction)

1. NC(=O)c1nc(F)cnc1O :: 0.00195

====

conditions: in acetone, 303.15 K
experimentalEndpoint: solubility (mole fraction)

1. NC(=O)c1nc(F)cnc1O :: 0.00492

====

settings: in n-propanol, 303.15 K
experimentalEndpoint: solubility (mole fraction)

1) NC(=O)c1nc(F)cnc1O :: 0.00225

====

settings: in n-butyl acetate, 308.15 K
experimentalEndpoint: solubility (mole fraction)

1. NC(=O)c1nc(F)cnc1O :: 0.00641

====

settings: in n-propanol, 293.15 K
experimentalEndpoint: solubility (mole fraction)

1. NC(=O)c1nc(F)cnc1O :: 0.00188

====

conditions: in acetone, 308.15 K
experimentalEndpoint: solubility (mole fraction)

1) NC(=O)c1nc(F)cnc1O :: 0.00523

====

details: in n-propanol, 318.15 K
experimentalEndpoint: solubility (mole fraction)

1. NC(=O)c1nc(F)cnc1O :: 0.00299

====

conditions: in ethyl acetate, 313.15 K
experimentalEndpoint: solubility (mole fraction)

1. NC(=O)c1nc(F)cnc1O :: 0.00497

====

details: in methanol, 308.15 K
experimentalEndpoint: solubility (mole fraction)

1. NC(=O)c1nc(F)cnc1O :: 0.00163

====

settings: in acetonitrile, 303.15 K
experimentalEndpoint: solubility (mole fraction)

1. NC(=O)c1nc(F)cnc1O :: 0.00193

====

settings: in dichloromethane, 303.15 K
experimentalEndpoint: solubility (mole fraction)

1) NC(=O)c1nc(F)cnc1O :: 0.00277

====

conditions: in acetonitrile, 298.15 K
experimentalEndpoint: solubility (mole fraction)

1) NC(=O)c1nc(F)cnc1O :: 0.00188

====

details: in DMF, 328.15 K
experimentalEndpoint: solubility (mole fraction)

1) NC(=O)c1nc(F)cnc1O :: 0.0234

====

conditions: in n-butyl acetate, 333.15 K
experimentalEndpoint: solubility (mole fraction)

1) NC(=O)c1nc(F)cnc1O :: 0.00986

====

details: in acetone, 333.15 K
experimentalEndpoint: solubility (mole fraction)

1. NC(=O)c1nc(F)cnc1O :: 0.00859

====

conditions: in dichloromethane, 328.15 K
experimentalEndpoint: solubility (mole fraction)

1. NC(=O)c1nc(F)cnc1O :: 0.00462

====

conditions: in dichloromethane, 333.15 K
experimentalEndpoint: solubility (mole fraction)

1. NC(=O)c1nc(F)cnc1O :: 0.00514

====

settings: in dichloromethane, 318.15 K
experimentalEndpoint: solubility (mole fraction)

1. NC(=O)c1nc(F)cnc1O :: 0.00359

====

conditions: in isopropanol, 323.15 K
experimentalEndpoint: solubility (mole fraction)

1) NC(=O)c1nc(F)cnc1O :: 0.00315

====

settings: in methanol, 313.15 K
experimentalEndpoint: solubility (mole fraction)

1. NC(=O)c1nc(F)cnc1O :: 0.00169

====

details: in n-butyl acetate, 318.15 K
experimentalEndpoint: solubility (mole fraction)

1. NC(=O)c1nc(F)cnc1O :: 0.00741

====

settings: in isopropanol, 303.15 K
experimentalEndpoint: solubility (mole fraction)

1. NC(=O)c1nc(F)cnc1O :: 0.00209

====

details: in isopropanol, 318.15 K
experimentalEndpoint: solubility (mole fraction)

1. NC(=O)c1nc(F)cnc1O :: 0.00284

====

conditions: in isopropanol, 333.15 K
experimentalEndpoint: solubility (mole fraction)

1) NC(=O)c1nc(F)cnc1O :: 0.00326

====

settings: in n-butanol, 303.15 K
experimentalEndpoint: solubility (mole fraction)

1. NC(=O)c1nc(F)cnc1O :: 0.00318

====

conditions: in methyl acetate, 323.15 K
experimentalEndpoint: solubility (mole fraction)

1. NC(=O)c1nc(F)cnc1O :: 0.00597

====

details: in methyl acetate, 298.15 K
experimentalEndpoint: solubility (mole fraction)

1) NC(=O)c1nc(F)cnc1O :: 0.00408

====

settings: in n-butyl acetate, 303.15 K
experimentalEndpoint: solubility (mole fraction)

1. NC(=O)c1nc(F)cnc1O :: 0.00582

====

conditions: in acetonitrile, 293.15 K
experimentalEndpoint: solubility (mole fraction)

1. NC(=O)c1nc(F)cnc1O :: 0.00183

====

details: in n-butanol, 323.15 K
experimentalEndpoint: solubility (mole fraction)

1. NC(=O)c1nc(F)cnc1O :: 0.00463

====

conditions: in ethanol, 303.15 K
experimentalEndpoint: solubility (mole fraction)

1) NC(=O)c1nc(F)cnc1O :: 0.00252

====

details: in acetonitrile, 328.15 K
experimentalEndpoint: solubility (mole fraction)

1. NC(=O)c1nc(F)cnc1O :: 0.00285

====

conditions: in ethyl acetate, 303.15 K
experimentalEndpoint: solubility (mole fraction)

1) NC(=O)c1nc(F)cnc1O :: 0.00442

====

settings: in DMF, 308.15 K
experimentalEndpoint: solubility (mole fraction)

1. NC(=O)c1nc(F)cnc1O :: 0.0133

====

details: in dichloromethane, 308.15 K
experimentalEndpoint: solubility (mole fraction)

1) NC(=O)c1nc(F)cnc1O :: 0.00284

====

settings: in DMF, 333.15 K
experimentalEndpoint: solubility (mole fraction)

1) NC(=O)c1nc(F)cnc1O :: 0.026

====

conditions: in acetone, 323.15 K
experimentalEndpoint: solubility (mole fraction)

1) NC(=O)c1nc(F)cnc1O :: 0.00699

====

conditions: in ethanol, 333.15 K
experimentalEndpoint: solubility (mole fraction)

1. NC(=O)c1nc(F)cnc1O :: 0.00458

====

settings: in n-butanol, 333.15 K
experimentalEndpoint: solubility (mole fraction)

1) NC(=O)c1nc(F)cnc1O :: 0.00537

====

details: in n-butyl acetate, 313.15 K
experimentalEndpoint: solubility (mole fraction)

1. NC(=O)c1nc(F)cnc1O :: 0.00681

====

settings: in methyl acetate, 333.15 K
experimentalEndpoint: solubility (mole fraction)

1. NC(=O)c1nc(F)cnc1O :: 0.00778

====

conditions: in DMF, 318.15 K
experimentalEndpoint: solubility (mole fraction)

1) NC(=O)c1nc(F)cnc1O :: 0.0183

====

details: in acetonitrile, 308.15 K
experimentalEndpoint: solubility (mole fraction)

1. NC(=O)c1nc(F)cnc1O :: 0.00207

====

settings: in ethyl acetate, 298.15 K
experimentalEndpoint: solubility (mole fraction)

1) NC(=O)c1nc(F)cnc1O :: 0.00396

====

conditions: in DMF, 313.15 K
experimentalEndpoint: solubility (mole fraction)

1) NC(=O)c1nc(F)cnc1O :: 0.0156

====

settings: in n-butanol, 298.15 K
experimentalEndpoint: solubility (mole fraction)

1. NC(=O)c1nc(F)cnc1O :: 0.00296

====

conditions: in ethanol, 323.15 K
experimentalEndpoint: solubility (mole fraction)

1) NC(=O)c1nc(F)cnc1O :: 0.00366

====

conditions: in dichloromethane, 298.15 K
experimentalEndpoint: solubility (mole fraction)

1. NC(=O)c1nc(F)cnc1O :: 0.00271

====

conditions: in ethyl acetate, 323.15 K
experimentalEndpoint: solubility (mole fraction)

1) NC(=O)c1nc(F)cnc1O :: 0.00572

====

conditions: in n-propanol, 333.15 K
experimentalEndpoint: solubility (mole fraction)

1) NC(=O)c1nc(F)cnc1O :: 0.00395

====

settings: in n-butanol, 308.15 K
experimentalEndpoint: solubility (mole fraction)

1) NC(=O)c1nc(F)cnc1O :: 0.00346

====

settings: in ethyl acetate, 328.15 K
experimentalEndpoint: solubility (mole fraction)

1) NC(=O)c1nc(F)cnc1O :: 0.00599

====

conditions: in acetonitrile, 323.15 K
experimentalEndpoint: solubility (mole fraction)

1. NC(=O)c1nc(F)cnc1O :: 0.00268
